These data points were gathered from patent US20250090676A1.

- test.system: T1, human FOLR1-HIS (human, UniProt P15328 25-233)
- T1 construct: Analyte of the Biacore assay; also called FolRα-ECD; extracellular domain of FOLR1; not shown: HIS tag
- T1 sequence (P15328 25-233 limits assumed): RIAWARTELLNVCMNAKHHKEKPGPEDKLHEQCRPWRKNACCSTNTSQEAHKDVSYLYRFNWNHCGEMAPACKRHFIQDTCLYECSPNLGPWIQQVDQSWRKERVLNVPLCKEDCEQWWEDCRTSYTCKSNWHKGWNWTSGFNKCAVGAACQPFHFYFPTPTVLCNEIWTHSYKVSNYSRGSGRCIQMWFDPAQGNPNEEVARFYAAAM
- test.description: SPR (Biacore), antibody captured on anti-Fc, human FOLR1-HIS analyte, 25 C
observable: koff (s⁻¹)
Value expressed in s⁻¹; do not type the unit.

QUERY: Suppose we examine the binder SRP2060-A06 (antibody, V domains shown, also called Antibody 59) VH: EVQLLESGGGLVQPGGSLRLSCAFSGFSLSTFGMGVGWVRQAPGKGLEWVGHIWWDDDKYYYPALKGRFTISKDNSKNTVYLQMNSLRAEDTAVYYCGRNHFPHYYGSSHWYFDVWGQGTTVTVSS VL: DIQMTQSPSTLSASVGDRVTITCKASQDINSYLSWYQQKPGKAPKLLIYRANRLVDGVPSRFSGSGSGTEFTLTISSLQPDDFATYYCLQYDEFPYTFGGGTKVEIK ; what koff value has been reported?
RESULT: 0.00729

QUERY: # lookup: koff of SRP2060-E10 (antibody, V domains shown, also called Antibody 56) VH: EVQLLESGGGLVQPGGSLRLSCAFSGFSLSTFGMGVGWVRQAPGKGLEWVSHIWWDDDKYYHPALKGRFTISKDNSKNTVYLQMNSLRAEDTAVYYCGRNHFPHYYGSSHWYFNVWGQGTTVTVSS VL: EIVMTQSPATLSLSPGERATLSCKASQDINSYLSWYQQKPGQAPRLLIYRANRLVDGIPARFSGSGSGTDYTLTISSLEPEDFAVYYCLQYDEFPYTFGGGTKVEIK
RESULT: 0.0012

QUERY: Look up koff: SRP2060-E05 (antibody, V domains shown, also called Antibody 57) VH: EVQLLESGGGLVQPGGSLRLSCAFSGFSLSTFGMGVGWVRQAPGKGLEWVSHIWWDDDKYYHPALKGRFTVSKDNSKNTVYLQMNSLRAEDTAVYYCGRNHFPHYYGSSHWYFNVWGQGTTVTVSS VL: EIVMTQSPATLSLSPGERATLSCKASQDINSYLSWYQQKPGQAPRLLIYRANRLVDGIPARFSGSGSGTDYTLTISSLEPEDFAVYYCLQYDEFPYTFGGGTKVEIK
RESULT: 0.00158

QUERY: Query: koff; subject: SRP2060-B01 (antibody, V domains shown, also called Antibody 58) VH: EVQLLESGGGLVQPGGSLRLSCALSGFSLSTFGMGVGWVRQATGKGLEWVSHIWWDDDKYYHPALKGRFTISKDNSKNTVHLQMNSLRAEDTAVYYCGRNHFPHYYGSSHWYFNVWGQGTTVTVSS VL: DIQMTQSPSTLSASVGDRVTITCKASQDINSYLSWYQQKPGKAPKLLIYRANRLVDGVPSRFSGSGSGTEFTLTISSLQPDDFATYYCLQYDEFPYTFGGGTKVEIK
RESULT: 0.00147
